- Test system: MS2 coat protein
- Protocol text: apparent KD of MS2 coat protein; designed switch direction (-1 OFF switch, 1 ON switch): -1; higher = weaker reporter binding
- Condition context: input ligand: none

Macromolecule sequence: ACAGCAUAGUUAGGAUAUUGCCGACACUGUGUGUUCCUACACAUGAGGAUCACCCAUGUGAAGCGCGAGAAGGAACUAACUGAA [Eternabot solution 8] (Eterna round: R96, puzzle: Exclusion NG 2)
Unit spec: µM
apparent KD of MS2 coat protein: 0.348
--
Macromolecule sequence: UGUUGUUACGCAGGAUAUUGUCAACAGGCAGUAGGAUAUCCGAAAGGAGAAGGACCGCCAACAGGCGAGAAGGGCGGGUUAACA [pwkr exNG2 2xF7 2xFMN.7] (Eterna round: R96, puzzle: Exclusion NG 2)
Unit spec: µM
apparent KD of MS2 coat protein: 0.323
--
Macromolecule sequence: UCUCGCAGGCAAGGAUAUCCUACAUUGUUCUGGCCCGGGCAUGCUACAUGAGGAUCACCCAUGUGGGAGAAGGUGCGCCACGGC [Design 32] (Eterna round: R96, puzzle: Exclusion NG 2)
Unit spec: µM
apparent KD of MS2 coat protein: 0.0354

====

- Test system: MS2 coat protein
- Protocol text: apparent KD of MS2 coat protein; designed switch direction (-1 OFF switch, 1 ON switch): 1; higher = weaker reporter binding
- Condition context: input ligand: FMN 200 uM
Listed next: entries and their corresponding apparent KD of MS2 coat protein.
Result type: apparent KD of MS2 coat protein (nM)

Macromolecule sequence: CGCCAGAGAGCAGGAUAUGGGCCACAGCCUAAGGGCUGUGAACUCACAUGAGGAUCACCCAUGUCCCAGAAGGGCUCCUAGCUA [Erzabe] (Eterna round: R96, puzzle: Same State NG 2)
Target of assay: MS2 coat protein
Result type: apparent KD of MS2 coat protein
Observed: 203
--
Macromolecule sequence: GCGAGCGUACUUGCAACAUGAGGAUCACCCAUGUUAACUGGACAGGAUAUGGUACCGUUUCGGUACCAGAAGGGUUCAUCAUGU [JL SSNG3 3.67] (Eterna round: R96, puzzle: Same State NG 3)
Target of assay: MS2 coat protein
Result type: apparent KD of MS2 coat protein
Observed: 74.1
--
Macromolecule sequence: AGGCUCAGACUAGGAUAUGAUCAUGGCGCUUCGGCGCAUACAUGAGGAUCACCCAUGUAAAGUGAUCAGAAGGAGUCUGAGCCA [SSNG2/7-C1] (Eterna round: R96, puzzle: Same State NG 2)
Target of assay: MS2 coat protein
Result type: apparent KD of MS2 coat protein
Observed: 9.82
--
Macromolecule sequence: UUAAUGAAGUAAGGAUAUACAUGAGGAUCACUCGUAGAAGGUACUAAACAUGAGGAUCACCCAUGUACCGGUCCGUAGACUGGA [JL SSNG1 1.01] (Eterna round: R96, puzzle: Same State NG 1)
Target of assay: MS2 coat protein
Result type: apparent KD of MS2 coat protein
Observed: 472
--
Macromolecule sequence: UGGCUCAGACUAGGAUAUAUGCGAUCACAUGAGGAUCACCCAUGUCUCGAGCUUCGGCUCGAGGCAUAGAAGGAGUCUGAGCCA [SSNG2/4-D2] (Eterna round: R96, puzzle: Same State NG 2)
Target of assay: MS2 coat protein
Result type: apparent KD of MS2 coat protein
Observed: 14.4
--
Macromolecule sequence: GGUAGGUUACUACCAAACAUGAGGAUCACCCAUGUAAAUGGGAAGGAUAUGGUACCUAUUUGGUACCAGAAGGUCCAAUUAAUU [JL Fiskers NG3ss - 2 mod 2] (Eterna round: R96, puzzle: Same State NG 3)
Target of assay: MS2 coat protein
Result type: apparent KD of MS2 coat protein
Observed: 670
--
Macromolecule sequence: AGCCUGAGUCGAGGAUAUUAUGGAUCCUUUAAUACAUGAGGAUCACCCAUGUAAUUAAUUAUACAUGAGAAGGCGACUCAGGCA [SSNG2/11-A1] (Eterna round: R96, puzzle: Same State NG 2)
Target of assay: MS2 coat protein
Result type: apparent KD of MS2 coat protein
Observed: 10.9
--
Macromolecule sequence: AUUUCUAGCAUAGGAUAUCAUGCGAAAAUUGCGUGAGAAGGGUGGACGCUGUCAUUCACGGAAGACAUGAGGAUCACCCAUGUC [SameState NG1 #75] (Eterna round: R96, puzzle: Same State NG 1)
Target of assay: MS2 coat protein
Result type: apparent KD of MS2 coat protein
Observed: 76.6
--
Macromolecule sequence: GUCGGACCGGAAGGAUAUAACGACUGGUGUUUUCACAUGAGGAUCACCCAUGUAUCUCUACCGUGUUAGAAGGUUCGGAGGAAU [Eternabot solution 49] (Eterna round: R96, puzzle: Same State NG 2)
Target of assay: MS2 coat protein
Result type: apparent KD of MS2 coat protein
Observed: 14.8
